molecular target: recombinant soluble homotrimeric HA of A/Indonesia/5/05 (H5N1) (Influenza A virus A/Indonesia/5/2005(H5N1)); assay: HA microarray, BCC supernatant; conditions: remark: other sources report otherwise
resultType: log10 of Trimeric HA Binding: RLU (log10 of the value in RLU)
// do not treat as linear: log10 of Trimeric HA Binding: RLU, unit RLU

Study these solved cases before continuing.
- TCN-546 (5089_L08) (antibody, V domains shown) VH: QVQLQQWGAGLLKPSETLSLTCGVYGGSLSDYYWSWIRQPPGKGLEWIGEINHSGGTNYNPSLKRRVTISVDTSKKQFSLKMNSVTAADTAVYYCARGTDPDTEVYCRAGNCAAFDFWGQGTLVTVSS VL: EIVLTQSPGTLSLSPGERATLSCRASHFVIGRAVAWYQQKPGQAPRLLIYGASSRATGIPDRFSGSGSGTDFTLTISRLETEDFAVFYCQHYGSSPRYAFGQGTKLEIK: 4.26
- TCN-540 (5060_F05) (antibody, V domains shown) VH: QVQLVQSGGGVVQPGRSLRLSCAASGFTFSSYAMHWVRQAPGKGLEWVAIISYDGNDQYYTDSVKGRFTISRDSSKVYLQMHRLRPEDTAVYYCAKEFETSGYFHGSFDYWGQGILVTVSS VL: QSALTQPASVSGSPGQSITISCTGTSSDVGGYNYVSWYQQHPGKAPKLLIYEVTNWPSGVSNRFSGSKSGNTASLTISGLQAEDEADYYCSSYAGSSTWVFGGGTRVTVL: 1.49
- TCN-530 (5248_H10a) (antibody, V domains shown) VH: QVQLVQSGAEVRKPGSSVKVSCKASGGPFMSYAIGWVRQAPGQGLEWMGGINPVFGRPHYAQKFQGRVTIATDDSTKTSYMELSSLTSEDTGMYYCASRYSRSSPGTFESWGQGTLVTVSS VL: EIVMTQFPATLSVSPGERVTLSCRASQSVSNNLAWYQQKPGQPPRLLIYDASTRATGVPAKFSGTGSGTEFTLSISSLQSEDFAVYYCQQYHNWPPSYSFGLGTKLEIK: 4.60
- TCN-557 (5081_A04) (antibody, V domains shown) VH: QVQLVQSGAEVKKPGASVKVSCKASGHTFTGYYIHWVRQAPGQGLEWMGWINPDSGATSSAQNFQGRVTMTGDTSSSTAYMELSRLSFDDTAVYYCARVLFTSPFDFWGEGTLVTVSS VL: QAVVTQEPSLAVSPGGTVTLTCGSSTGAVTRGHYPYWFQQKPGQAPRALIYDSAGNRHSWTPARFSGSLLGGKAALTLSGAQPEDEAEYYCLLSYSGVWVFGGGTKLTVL: 4.66
- TCN-523 (5248_A17) (antibody, V domains shown) VH: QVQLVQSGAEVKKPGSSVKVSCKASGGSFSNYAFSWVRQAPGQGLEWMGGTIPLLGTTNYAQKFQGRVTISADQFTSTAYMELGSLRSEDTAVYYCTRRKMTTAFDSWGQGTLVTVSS VL: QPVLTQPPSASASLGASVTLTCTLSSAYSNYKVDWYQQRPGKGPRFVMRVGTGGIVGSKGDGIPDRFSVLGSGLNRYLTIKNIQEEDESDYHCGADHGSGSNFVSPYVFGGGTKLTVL: 4.66
- TCN-541 (5062_M11) (antibody, V domains shown) VH: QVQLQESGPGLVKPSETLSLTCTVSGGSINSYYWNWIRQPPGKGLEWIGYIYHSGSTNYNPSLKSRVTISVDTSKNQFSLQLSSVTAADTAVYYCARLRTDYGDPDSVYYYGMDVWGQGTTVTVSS VL: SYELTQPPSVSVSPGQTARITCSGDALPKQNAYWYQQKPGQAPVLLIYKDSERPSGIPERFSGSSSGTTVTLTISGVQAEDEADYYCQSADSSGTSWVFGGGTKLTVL: 1.48

Here is the next item to consider.
// log10 of Trimeric HA Binding: RLU value for TCN-555 (5246_L16) (antibody, V domains shown) VH: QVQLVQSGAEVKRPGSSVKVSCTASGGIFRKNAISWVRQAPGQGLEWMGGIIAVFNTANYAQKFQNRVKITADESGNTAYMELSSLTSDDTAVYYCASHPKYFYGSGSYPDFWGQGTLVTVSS VL: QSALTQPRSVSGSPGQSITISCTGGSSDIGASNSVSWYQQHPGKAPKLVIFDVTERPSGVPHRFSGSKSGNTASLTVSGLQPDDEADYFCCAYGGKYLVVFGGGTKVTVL : 4.54

Recorded values, source patent US20150086555A1.
